assayedTarget: IL-6 (Homo sapiens)
Construct: purchased Genzyme Corp
Sequence (P05231 30-212): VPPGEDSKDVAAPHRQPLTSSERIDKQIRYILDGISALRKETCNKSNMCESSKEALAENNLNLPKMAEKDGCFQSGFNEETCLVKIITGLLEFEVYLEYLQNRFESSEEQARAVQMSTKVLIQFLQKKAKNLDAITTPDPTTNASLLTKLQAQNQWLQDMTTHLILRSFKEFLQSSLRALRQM
runDescription: Activity for inhibition of binding of IL-6 to receptor by peptide (IL-6 receptor expression cells, FITC labeled anti-IL-6 antibody)
recordedConditions: 5 μg of the peptide, 50 ng of IL-6, 10^5 IL-6 receptor expression cells, 4° C for one hour
No end group written: not given here.
metricName: Binding inhibition activity (%)

- H-Thr-Ser-Leu-Pro-Gly-Ser-Val-Thr-Leu-Thr-Cys-Pro-Gly-Val-Glu-Pro-Glu-Asp- Lys-OH (H-TSLPGSVTLTCPGVEPEDK-OH) [Example 1]: 38
- KRKFQNSPAEDFQEPCQYSQESD-NH2 [Example 22]: 58
- QALTTNKDDDNILFRDSAK [Example 25]: 45
